target: HLA-A*02:02; assay: IEDB peptide-MHC binding, purified MHC/competitive/radioactivity; filed as Kd, often an IC50 or EC50 that approximates it; bounds were set here for any values at or beyond the usual limits of such assays; details: source organism: Vaccinia virus WR
Listing of recorded Kd by entry.
Dear colleague, please return just the value in nM, with no unit written.

Record excerpt, results attached:
- polymer_sequence: "LLEMKYALI"
  Kd, nM: 354
- polymer_sequence: "TLVPVLEKKV"
  Kd, nM: 112
- polymer_sequence: "ATFRDMLLNV"
  Kd, nM: 7.06
- polymer_sequence: "SINITPDDGL"
  Kd, nM: 413
- polymer_sequence: "DMLKLFTHDI"
  Kd, nM: 196
- polymer_sequence: "IMFMLIFNV"
  Kd, nM: 0.146

Prompt line: Requested read-out: Kd. Entry: `EATFIDVHI`
Response line: 1660

Prompt line: Requested read-out: Kd. Entry: `YIEDELRRA`
Response line: 1760

Prompt line: Requested read-out: Kd. Entry: `ILFILFFAYV`
Response line: 132

Prompt line: Requested read-out: Kd. Entry: `YVEHDPRLVA`
Response line: 18600

Provenance of the data: the Immune Epitope Database (IEDB)
